// data source = ChEMBL document CHEMBL4033712

system: SN12C; experiment: Anticancer activity against human SN12C cells assessed as cell growth at 10 uM after 48 hrs by sulforhodamine B assay relative to control; format: functional; details: read-out: Activity
Measured Property: growth at 10 µM (%)
Give your result in % as a bare value.

Problem: Hello, please tell me recorded growth at 10 µM for this one: C=C1CC[C@@H]2[C@](C)(COC(C)=O)[C@H](OC(C)=O)CC[C@@]2(C)[C@H]1CC(Nc1ccc(S(=O)(=O)Nc2nc(C)cc(C)n2)cc1)C1=CCOC1=O (stereo partly specified)
Solution: 38.2

Problem: Hello, please tell me recorded growth at 10 µM for this one: C=C1CC[C@@H]2[C@](C)(COC(C)=O)[C@H](OC(C)=O)CC[C@@]2(C)[C@H]1CC(Nc1ccc(S(=O)(=O)Nc2ccc(Cl)nn2)cc1)C1=CCOC1=O (stereo partly specified)
Solution: -27.6

Problem: Hello, please tell me recorded growth at 10 µM for this one: C=C1CC[C@@H]2[C@](C)(COC(C)=O)[C@H](OC(C)=O)CC[C@@]2(C)[C@H]1CC(Nc1ccc(S(=O)(=O)Nc2nccc(C)n2)cc1)C1=CCOC1=O (stereo partly specified)
Solution: 25.1

Problem: Hello, please tell me recorded growth at 10 µM for this one: C=C1CC[C@@H]2[C@](C)(COC(C)=O)[C@H](OC(C)=O)CC[C@@]2(C)[C@H]1CC(Nc1ccc(S(=O)(=O)Nc2cc(C)on2)cc1)C1=CCOC1=O (stereo partly specified)
Solution: 31.8

Problem: Hello, please tell me recorded growth at 10 µM for this one: C=C1CC[C@@H]2[C@](C)(COC(C)=O)[C@H](OC(C)=O)CC[C@@]2(C)[C@H]1CC(Nc1ccc(S(=O)(=O)Nc2ncccn2)cc1)C1=CCOC1=O (stereo partly specified)
Solution: 7.64

Problem: Hello, please tell me recorded growth at 10 µM for this one: C=C1CC[C@@H]2[C@](C)(COC(C)=O)[C@H](OC(C)=O)CC[C@@]2(C)[C@H]1CC(Nc1ccc(S(=O)(=O)Nc2nccs2)cc1)C1=CCOC1=O (stereo partly specified)
Solution: 15.6

###

tested on: MCF7; experiment: Growth inhibition of human MCF7 cells incubated for 48 hrs by sulforhodamine B assay; format: functional; conditions: MCF7, 48 h
Measured Property: TGI
For clarity, give the value followed by its unit.

Problem: Hello, please tell me recorded TGI for this one: C=C1CC[C@@H]2[C@](C)(COC(C)=O)[C@H](OC(C)=O)CC[C@@]2(C)[C@H]1CC(Nc1ccc(S(=O)(=O)Nc2ccc(Cl)nn2)cc1)C1=CCOC1=O (stereo not given in full)
Solution: 2.9 µM

Problem: Hello, please tell me recorded TGI for this one: C=C1CC[C@@H]2[C@](C)(COC(C)=O)[C@H](OC(C)=O)CC[C@@]2(C)[C@H]1CC(Nc1ccc(S(=O)(=O)Nc2nccc(C)n2)cc1)C1=CCOC1=O (stereo not given in full)
Solution: 12.5 µM

Problem: Hello, please tell me recorded TGI for this one: C=C1CC[C@@H]2[C@](C)(COC(C)=O)[C@H](OC(C)=O)CC[C@@]2(C)[C@H]1CC(Nc1ccc(S(=O)(=O)Nc2ncccn2)cc1)C1=CCOC1=O (stereo not given in full)
Solution: 4.54 µM

Problem: Hello, please tell me recorded TGI for this one: C=C1CC[C@@H]2[C@](C)(COC(C)=O)[C@H](OC(C)=O)CC[C@@]2(C)[C@H]1CC(Nc1ccc(S(=O)(=O)Nc2nccs2)cc1)C1=CCOC1=O (stereo not given in full)
Solution: 13.6 µM

Problem: Hello, please tell me recorded TGI for this one: C=C1CC[C@@H]2[C@](C)(COC(C)=O)[C@H](OC(C)=O)CC[C@@]2(C)[C@H]1CC(Nc1ccc(S(=O)(=O)Nc2cc(C)on2)cc1)C1=CCOC1=O (stereo not given in full)
Solution: 2.76 µM

###

tested on: RXF 393; experiment: Growth inhibition of human RXF393 cells incubated for 48 hrs by sulforhodamine B assay; assay type: functional; details: RXF 393, 48 h
Mark each entry yes if its TGI sits below 4 µM, and no for all others.

Problem: In plain terms, does C=C1CC[C@@H]2[C@](C)(COC(C)=O)[C@H](OC(C)=O)CC[C@@]2(C)[C@H]1CC(Nc1ccc(S(=O)(=O)Nc2nccs2)cc1)C1=CCOC1=O (stereo not given in full) come in under 4 µM for TGI?
Solution: no

Problem: In plain terms, does C=C1CC[C@@H]2[C@](C)(COC(C)=O)[C@H](OC(C)=O)CC[C@@]2(C)[C@H]1CC(Nc1ccc(S(=O)(=O)Nc2ccc(Cl)nn2)cc1)C1=CCOC1=O (stereo not given in full) come in under 4 µM for TGI?
Solution: yes

Problem: In plain terms, does C=C1CC[C@@H]2[C@](C)(COC(C)=O)[C@H](OC(C)=O)CC[C@@]2(C)[C@H]1CC(Nc1ccc(S(=O)(=O)Nc2nccc(C)n2)cc1)C1=CCOC1=O (stereo not given in full) come in under 4 µM for TGI?
Solution: no

Problem: In plain terms, does C=C1CC[C@@H]2[C@](C)(COC(C)=O)[C@H](OC(C)=O)CC[C@@]2(C)[C@H]1CC(Nc1ccc(S(=O)(=O)Nc2ncccn2)cc1)C1=CCOC1=O (stereo not given in full) come in under 4 µM for TGI?
Solution: yes

Problem: In plain terms, does C=C1CC[C@@H]2[C@](C)(COC(C)=O)[C@H](OC(C)=O)CC[C@@]2(C)[C@H]1CC(Nc1ccc(S(=O)(=O)Nc2cc(C)on2)cc1)C1=CCOC1=O (stereo not given in full) come in under 4 µM for TGI?
Solution: yes

###

tested on: MDA-MB-231; test: Anticancer activity against human MDA-MB-231 cells assessed as cell growth at 10 uM after 48 hrs by sulforhodamine B assay relative to control; type: functional; conditions: MDA-MB-231, 48 h, read-out: Activity
# binarize growth at 10 µM: threshold 20% inclusive, high side 1, low side 0

Problem: Reported growth at 10 µM reaches at least 20% for C=C1CC[C@@H]2[C@](C)(COC(C)=O)[C@H](OC(C)=O)CC[C@@]2(C)[C@H]1CC(Nc1ccc(S(=O)(=O)Nc2ncccn2)cc1)C1=CCOC1=O (stereo partly specified) ?
Solution: 0

Problem: Reported growth at 10 µM reaches at least 20% for C=C1CC[C@@H]2[C@](C)(COC(C)=O)[C@H](OC(C)=O)CC[C@@]2(C)[C@H]1CC(Nc1ccc(S(=O)(=O)Nc2nccs2)cc1)C1=CCOC1=O (stereo partly specified) ?
Solution: 0

Problem: Reported growth at 10 µM reaches at least 20% for C=C1CC[C@@H]2[C@](C)(COC(C)=O)[C@H](OC(C)=O)CC[C@@]2(C)[C@H]1CC(Nc1ccc(S(=O)(=O)Nc2ccc(Cl)nn2)cc1)C1=CCOC1=O (stereo partly specified) ?
Solution: 1

Problem: Reported growth at 10 µM reaches at least 20% for C=C1CC[C@@H]2[C@](C)(COC(C)=O)[C@H](OC(C)=O)CC[C@@]2(C)[C@H]1CC(Nc1ccc(S(=O)(=O)Nc2nc(C)cc(C)n2)cc1)C1=CCOC1=O (stereo partly specified) ?
Solution: 1

Problem: Reported growth at 10 µM reaches at least 20% for C=C1CC[C@@H]2[C@](C)(COC(C)=O)[C@H](OC(C)=O)CC[C@@]2(C)[C@H]1CC(Nc1ccc(S(=O)(=O)Nc2nccc(C)n2)cc1)C1=CCOC1=O (stereo partly specified) ?
Solution: 0

Problem: Reported growth at 10 µM reaches at least 20% for C=C1CC[C@@H]2[C@](C)(COC(C)=O)[C@H](OC(C)=O)CC[C@@]2(C)[C@H]1CC(Nc1ccc(S(=O)(=O)Nc2cc(C)on2)cc1)C1=CCOC1=O (stereo partly specified) ?
Solution: 1

###

Record form. Attribute: TGI. Fill in for each entry.
test system: IGROV-1; assay: Growth inhibition of human IGROV1 cells incubated for 48 hrs by sulforhodamine B assay; type: functional; settings: IGROV-1, 48 h

Problem: State recorded TGI with IGROV-1, entry C=C1CC[C@@H]2[C@](C)(COC(C)=O)[C@H](OC(C)=O)CC[C@@]2(C)[C@H]1CC(Nc1ccc(S(=O)(=O)Nc2cc(C)on2)cc1)C1=CCOC1=O (stereo not given in full) , no comment.
Solution: 6.51 µM

Problem: State recorded TGI with IGROV-1, entry C=C1CC[C@@H]2[C@](C)(COC(C)=O)[C@H](OC(C)=O)CC[C@@]2(C)[C@H]1CC(Nc1ccc(S(=O)(=O)Nc2ncccn2)cc1)C1=CCOC1=O (stereo not given in full) , no comment.
Solution: 4.41 µM

Problem: State recorded TGI with IGROV-1, entry C=C1CC[C@@H]2[C@](C)(COC(C)=O)[C@H](OC(C)=O)CC[C@@]2(C)[C@H]1CC(Nc1ccc(S(=O)(=O)Nc2nccs2)cc1)C1=CCOC1=O (stereo not given in full) , no comment.
Solution: 17.1 µM

Problem: State recorded TGI with IGROV-1, entry C=C1CC[C@@H]2[C@](C)(COC(C)=O)[C@H](OC(C)=O)CC[C@@]2(C)[C@H]1CC(Nc1ccc(S(=O)(=O)Nc2ccc(Cl)nn2)cc1)C1=CCOC1=O (stereo not given in full) , no comment.
Solution: 5 µM

Problem: State recorded TGI with IGROV-1, entry C=C1CC[C@@H]2[C@](C)(COC(C)=O)[C@H](OC(C)=O)CC[C@@]2(C)[C@H]1CC(Nc1ccc(S(=O)(=O)Nc2nccc(C)n2)cc1)C1=CCOC1=O (stereo not given in full) , no comment.
Solution: 13.6 µM
